System: strains TA98
Type: cell-based
Details: 313 μg/plate, without S-9
Please provide measured Ames test: ratio of number of colonies to control for the entries that follow.

Task: Return reported Ames test: ratio of number of colonies to control; argument: Nc1c(N=Nc2ccc(Oc3ccc(Oc4ccc(N=Nc5ccc(O)cc5O)cc4)cc3)cc2)cc(S(=O)(=O)O)c2ccc(N=Nc3ccccc3)c(O)c12 [Ex. 10]
Output: 0.84

Task: Requested field: Ames test: ratio of number of colonies to control. Item: CCC(C)c1ccc(N=Nc2c(S(=O)(=O)O)cc3cc(S(=O)(=O)O)c(N=Nc4ccc(Oc5cccc(Oc6ccc(N=Nc7ccc(O)cc7O)cc6)c5)cc4)c(N)c3c2O)cc1 (stereo not drawn) [Ex. 3]
Output: 0.86

Task: // lookup Ames test: ratio of number of colonies to control for Nc1ccc(N=Nc2ccc(Oc3cccc(Oc4ccc(N=Nc5cc(S(=O)(=O)O)c6cc(S(=O)(=O)O)c(N=Nc7ccccc7)c(O)c6c5N)cc4)c3)cc2)c(O)c1 [Ex. 9]
Output: 0.75

Task: // lookup Ames test: ratio of number of colonies to control for Cc1cc(-c2ccc(N=Nc3c(S(=O)(=O)O)cc4cc(S(=O)(=O)O)c(N=Nc5ccccc5)c(O)c4c3N)c(C)c2)ccc1N=Nc1ccc(N)cc1N [compound 1, reference compound]
Output: 0.84

Task: # query: Ames test: ratio of number of colonies to control of entry CCC(C)c1ccc(N=Nc2c(S(=O)(=O)O)cc3cc(S(=O)(=O)O)c(N=Nc4ccc(Oc5ccc(Oc6ccc(N=Nc7ccc(O)cc7O)cc6)cc5)cc4)c(N)c3c2O)cc1 (stereo not drawn) [Ex. 6]
Output: 1.16

Task: Need Ames test: ratio of number of colonies to control, item Nc1ccc2c(O)c(N=Nc3ccccc3)c(S(=O)(=O)O)cc2c1N=Nc1ccc(Oc2ccc(Oc3ccc(N=Nc4ccc(O)cc4O)cc3)cc2)cc1 [Ex. 11]
Output: 0.81
